Each recorded value in this set is attributed to patent US20090047246A1.

# assay-target: HCV NS3 helicase (Hepatitis C virus genotype 1b)
# Construct: full-length NS3 (1-631), purified at Array BioPharma
# assay-method-text: HCV Helicase Prompt FRET Assay (Example A)
# Type: biochemical
# measurement-conditions: HCV NS3 helicase; tables do not say whether Example A or Example B assay; read-out: IC50 Activity
Reported IC50 is given for each of the following compounds.
value-type: IC50

Cc1cc([N+](=O)[O-])ccc1Cc1cn(-c2ccc([N+](=O)[O-])cc2C)c2ccc(Br)cc12 [Example 399]
10 to 50 µM
CCN(Cc1ccccc1)c1ccc(-n2cc(CC(=O)O)c3ccccc32)cc1 [Example 166]
< 10 µM
O=C(O)Cc1cn(Cc2cccc(Cl)c2)c2ccc(Br)cc12 [Example 108]
10 to 50 µM
O=C(O)Cc1cn(CC(=O)O)c2cc(-c3ccccc3)ccc12 [Example 354]
> 50 µM
COc1ccccc1N(C)c1cccc(Cn2cc(CC(=O)O)c3ccccc32)c1 [Example 526]
10 to 50 µM
CN(c1cccc(Cn2cc(CC(=O)O)c3ccccc32)c1)c1cc(C(F)(F)F)ccc1C(F)(F)F [Example 546]
< 10 µM
O=C(O)Cc1c(Cc2ccc(-c3ccccc3)cc2)oc2ccccc12 [Example 305]
10 to 50 µM
Cc1cc([N+](=O)[O-])ccc1-n1cc(C(=O)C(=O)O)c2cc(Br)ccc21 [Example 381]
10 to 50 µM

====

# assay-target: HCV NS3 helicase (Hepatitis C virus genotype 1b)
# Construct: full-length NS3 (1-631), purified at Array BioPharma
# assay-method-text: HCV Helicase Prompt FRET Assay (Example A)
# Type: biochemical
# measurement-conditions: HCV NS3 helicase; tables do not say whether Example A or Example B assay; read-out: IC50 Activity
pIC50: −log10 of the molar value.
Reported pIC50 is given for each of the following compounds.
value-type: pIC50

O=C(O)Cc1cn(Cc2cccc(Oc3ccccc3)c2)c2ccc(Br)cc12
> 5.00
O=Cc1c[nH]c2cnc(OCc3ccccc3)cc12
< 4.30
CCNC(=O)Cc1cn(Cc2cccc(OCc3ccccc3)c2)c2ccc(OCc3ccccc3)cc12
4.30 to 5.00
O=C(O)Cc1c(Cc2ccc(-c3ccccc3)cc2)n(Cc2ccccc2)c2ccccc12
4.30 to 5.00
O=C(O)Cc1c(C(=O)c2ccc(Br)cc2)n(Cc2ccccc2)c2ccccc12
4.30 to 5.00
CC(C)c1ccc(Cn2cc(CC(=O)O)c3cc(OCc4ccccc4)ccc32)cc1
4.30 to 5.00
O=C(O)Cc1cn(Cc2cccc(Oc3ccc(C(F)(F)F)cc3)c2)c2ccccc12
> 5.00
CC(=O)N(C)c1ccc(-n2cc(CC(=O)O)c3ccccc32)c(C)c1
4.30 to 5.00
COc1ccc(N(C)c2cccc(Cn3cc(CC(=O)O)c4ccccc43)c2)c(OC)c1
> 5.00
CCCN(Cc1ccccc1)c1ccc(-n2cc(CC(=O)O)c3ccccc32)cc1
4.30 to 5.00
CN(c1cccc(Cn2cc(CC(=O)O)c3ccccc32)c1)c1ccc(Cl)c(Cl)c1
> 5.00
O=C(O)Cc1c(Cc2csc3ccc(Cl)cc23)[nH]c2ccc(Br)cc12
4.30 to 5.00
CCCNC(=O)Cc1cn(Cc2cccc(OCc3ccccc3)c2)c2ccc(Br)cc12
4.30 to 5.00
CCOC(=O)Cc1c(-c2ccccc2)n(Cc2csc3ccc(Cl)cc23)c2ccccc12
< 4.30
O=C(O)Cc1cn(Cc2cccc(Oc3cc(C(F)(F)F)cc(C(F)(F)F)c3)c2)c2ccccc12
> 5.00
O=S(=O)(NCc1ccc2c(c1)c(Cc1nn[nH]n1)cn2Cc1csc2ccc(Cl)cc12)c1ccccc1
> 5.00
CN(Cc1ccccc1)c1ccc(-n2cc(CC(=O)O)c3ccccc32)cc1
> 5.00

====

# assay-target: HCV NS3 helicase (Hepatitis C virus genotype 1b)
# Construct: full-length NS3 (1-631), purified at Array BioPharma
# assay-method-text: HCV Helicase Prompt FRET Assay (Example A)
# Format: biochemical
# measurement-conditions: HCV NS3 helicase; tables do not say whether Example A or Example B assay; read-out: IC50 Activity
pIC50: −log10 of the molar value.
Reported pIC50 is given for each of the following compounds.
value-type: pIC50

CC(C)c1ccc(Cn2c(C(=O)NCc3ccc(F)cc3)c(CC(=O)O)c3ccccc32)cc1
> 5.00
COc1ccc(Oc2cccc(Cn3cc(CC(=O)O)c4ccccc43)c2)c(OC)c1
4.30 to 5.00
O=C(O)Cc1cn(Cc2cccc(Oc3ccc(Cl)c(Cl)c3)c2)c2ccccc12
> 5.00
O=C(O)Cc1c(Cc2cccc(-c3cccc(Cl)c3Cl)c2)oc2ccccc12
> 5.00
O=C(O)Cc1cn(Cc2ccc(Oc3cccc(F)c3F)cc2)c2ccccc12
> 5.00
CC(C)c1ccc(Cn2cc(C(N)C(=O)O)c3ccccc32)cc1 (centres unmarked)
< 4.30
CCOC(=O)c1ccc(Cn2cc(CC(=O)O)c3cc(OCc4ccccc4)ccc32)o1
4.30 to 5.00
CC(C)Oc1ccc2scc(Cn3cc(CC(=O)O)c4cc(Br)ccc43)c2c1 [Example 140]
> 5.00
O=C(O)Cc1c(C(=O)c2ccc(-c3ccncc3)cc2)[nH]c2ccccc12
4.30 to 5.00
O=C(O)Cc1c(C(=O)c2ccc(-c3ccccc3Cl)cc2)[nH]c2ccccc12 [Example 255]
4.30 to 5.00
CC(C)c1ccc(Cn2c(C(=O)NCc3ccc([N+](=O)[O-])cc3)c(CC(=O)O)c3ccccc32)cc1
> 5.00
CC(C)(C)OC(=O)NCc1cccc(-c2ccc(C(=O)c3[nH]c4ccccc4c3CC(=O)O)cc2)c1
> 5.00
O=C(O)Cc1c[nH]c2ncccc12
< 4.30
Cc1cc([N+](=O)[O-])ccc1-n1ccc2cc(Br)ccc21
< 4.30
C=COc1ccc2c(CC(=O)O)cn(Cc3csc4ccc(Cl)cc34)c2c1
> 5.00
Cc1cc([N+](=O)[O-])ccc1-n1cc(C(=O)C(=O)N2CCCC2)c2cc(Br)ccc21
< 4.30
O=C(O)Cc1c(C(=O)c2cccc(Oc3ccccc3)c2)n(CC2CC2)c2ccccc12
> 5.00

====

Reported IC50 is given for each of the following molecules.
# assay-target: HCV NS3 helicase (Hepatitis C virus genotype 1b)
# Construct: full-length NS3 (1-631), purified at Array BioPharma
# assay-method-text: HCV Helicase Prompt FRET Assay (Example A)
# Assay type: biochemical
# measurement-conditions: Table 36, compounds made using Scheme 54; read-out: IC50 Activity
value-type: IC50

N#Cc1ccc2c(CC(=O)O)cn(Cc3csc4ccc(Cl)cc34)c2c1 [Example 789]
10 to 50 µM
Cc1sc2ccc(Cl)cc2c1Cn1cc(CC(=O)O)c2ccccc21 [Example 790]
> 50 µM
Nc1cc(N)cc(-c2ccc3c(CC(=O)O)cn(Cc4csc5c(Cl)cc(F)cc45)c3c2)c1 [Example 726]
< 10 µM
O=C(O)Cc1cn(Cc2csc3cccc(Cl)c23)c2cc(Br)ccc12 [Example 784]
> 50 µM
Nc1cc(N)cc(-c2ccc3c(CC(=O)O)cn(Cc4csc5cc(Cl)c(F)cc45)c3c2)c1 [Example 723]
< 10 µM
Nc1cc(N)cc(-c2ccc3c(CC(=O)O)cn(Cc4csc5cc(Cl)ccc45)c3c2)c1 [Example 728]
< 10 µM
Nc1cc(N)cc(-c2ccc3c(CC(=O)O)cn(Cc4csc5cccc(Cl)c45)c3c2)c1 [Example 727]
< 10 µM
Nc1cc(N)cc(-c2ccc3c(CC(=O)O)cn(Cc4csc5cc(Cl)cc(Cl)c45)c3c2)c1 [Example 787]
10 to 50 µM

====

Reported pIC50 is given for each of the following compounds.
# assay-target: HCV NS3 helicase (Hepatitis C virus genotype 1b, UniProt P26663)
# Construct: full-length NS3 (1-631), purified at Array BioPharma
# Sequence (P26663 1027-1657): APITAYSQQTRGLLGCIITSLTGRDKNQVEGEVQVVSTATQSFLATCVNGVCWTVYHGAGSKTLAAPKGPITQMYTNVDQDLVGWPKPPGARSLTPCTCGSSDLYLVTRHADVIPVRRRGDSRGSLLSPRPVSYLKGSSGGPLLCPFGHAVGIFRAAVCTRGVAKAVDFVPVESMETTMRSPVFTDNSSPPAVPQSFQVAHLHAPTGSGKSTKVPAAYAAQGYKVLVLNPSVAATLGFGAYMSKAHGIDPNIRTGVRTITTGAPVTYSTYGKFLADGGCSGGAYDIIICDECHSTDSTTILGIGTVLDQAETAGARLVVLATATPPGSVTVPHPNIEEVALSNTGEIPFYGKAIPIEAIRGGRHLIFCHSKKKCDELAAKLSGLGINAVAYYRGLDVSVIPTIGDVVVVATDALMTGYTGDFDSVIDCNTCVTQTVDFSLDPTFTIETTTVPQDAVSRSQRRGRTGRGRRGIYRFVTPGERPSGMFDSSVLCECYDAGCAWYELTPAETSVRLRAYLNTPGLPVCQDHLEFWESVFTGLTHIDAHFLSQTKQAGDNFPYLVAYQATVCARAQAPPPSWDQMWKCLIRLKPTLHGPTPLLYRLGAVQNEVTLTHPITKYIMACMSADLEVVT
# assay-method-text: HCV Helicase Prompt FRET Assay (Example A)
# Assay type: biochemical
# measurement-conditions: HCV NS3 helicase; tables do not say whether Example A or Example B assay; read-out: IC50 Activity
pIC50: −log10 of the molar value.
value-type: pIC50

CN(c1cccc(Cn2cc(CC(=O)O)c3ccccc32)c1)c1cccc(C(F)(F)F)c1
> 5.00
O=C(O)C(Cc1ccccc1)c1c(-c2ccccc2)n(Cc2csc3ccc(Cl)cc23)c2ccccc12 (stereo not drawn)
> 5.00
Cn1c(Cc2csc3ccc(Cl)cc23)c(CC(=O)O)c2ccc(OCc3ccccc3)cc21
> 5.00
O=C(O)Cc1c(Cc2csc3ccc(Cl)cc23)n(-c2ccc([N+](=O)[O-])cc2)c2cc(OCc3ccccc3)ccc12
> 5.00
Cc1cc([N+](=O)[O-])ccc1-n1cc(CC(=O)O)c2cc3c(cc21)OCO3
< 4.30
COc1cc2c(cc1OCc1ccccc1)c(CC(=O)O)cn2Cc1csc2ccc(Cl)cc12
4.30 to 5.00
O=C(O)Cc1cn(Cc2csc3ccc(Cl)cc23)c2cc(-c3ccnc(Cl)c3)ccc12
4.30 to 5.00
CN(c1cccc(Cn2cc(CC(=O)O)c3ccccc32)c1)c1cc(F)ccc1F
4.30 to 5.00
COC(=O)C(c1ccc([N+](=O)[O-])cc1C)c1cn(-c2ccc([N+](=O)[O-])cc2C)c2ccc(Br)cc12 (stereo not drawn)
> 5.00
Cc1cc(-c2ccc(Cc3[nH]c4ccccc4c3CC(=O)O)cc2)ccc1Cl
> 5.00
COc1ccc(N(C)c2cccc(Cn3cc(CC(=O)O)c4ccccc43)c2)cc1
> 5.00
CC(C)c1ccc(Cn2c(C(=O)NCc3ccc(S(N)(=O)=O)cc3)c(CC(=O)O)c3ccccc32)cc1
4.30 to 5.00
O=C(Cc1cn(Cc2cccc(OCc3ccccc3)c2)c2ccc(OCc3ccccc3)cc12)N1CCCCC1
4.30 to 5.00
Cc1cc([N+](=O)[O-])ccc1CC1CN(c2ccc([N+](=O)[O-])cc2C)c2ccc(Br)cc21 (stereo not drawn)
4.30 to 5.00
O=C(O)Cc1cn(-c2ccc3c(c2)CCC3=O)c2ccccc12
4.30 to 5.00
CC(c1nnn[nH]1)c1cn(Cc2csc3ccc(Cl)cc23)c2ccccc12 (stereo not drawn)
4.30 to 5.00
COC(=O)CC1CN(c2ccc([N+](=O)[O-])cc2C)c2ccc(Br)cc21 (stereo not drawn)
4.30 to 5.00
CC(C)c1ccc(Cn2c(C(=O)NCc3ccc(C(F)(F)F)cc3)c(CC(=O)O)c3ccccc32)cc1
> 5.00
CC(C)c1ccc(Cn2c(C(=O)NC3CCCCC3)c(CC(=O)O)c3cc(Br)ccc32)cc1
4.30 to 5.00
O=C(O)Cc1c(Cc2csc3ccc(Cl)cc23)[nH]c2cc(OCc3ccccc3)ccc12
> 5.00
O=C(O)Cc1cn(Cc2cccc(Oc3ccccc3Cl)c2)c2ccccc12
> 5.00
Cc1cc([N+](=O)[O-])ccc1-n1cc(/C=C/C(=O)O)c2cc(Br)cnc21
< 4.30
O=C(O)Cc1c(C(=O)c2cccc(-c3cccc(Cl)c3)c2)[nH]c2ccccc12
4.30 to 5.00
CC(C)Oc1ccc2scc(Cn3cc(CC(=O)O)c4cc(Br)ccc43)c2c1 [Example 141]
4.30 to 5.00
CCN(Cc1ccccc1)c1ccc(-n2cc(CC(=O)OC)c3ccccc32)cc1
4.30 to 5.00
CSc1cccc(-c2cccc(Cc3[nH]c4ccccc4c3CC(=O)O)c2)c1
> 5.00
COc1ccc(N(C)c2cccc(Cn3cc(CC(=O)O)c4ccccc43)c2)cc1OC
> 5.00
O=C(O)Cc1cn(Cc2cccc(Oc3ccc(F)cc3)c2)c2ccc(OCc3ccccc3)cc12
> 5.00
Cc1cc(NC(=O)c2cccs2)ccc1-n1cc(CC(=O)O)c2ccccc21
4.30 to 5.00
O=C(O)Cc1c(Cc2cccc(-c3cc(Cl)cc(Cl)c3)c2)oc2ccccc12
> 5.00
CCOC(=O)Cc1cn(Cc2ccc(Oc3cc(Cl)cc(Cl)c3)cc2)c2ccccc12
> 5.00
O=C(O)Cc1cn(-c2ccc([N+](=O)[O-])cc2[N+](=O)[O-])c2ncc(Br)cc12
4.30 to 5.00
C#Cc1cn(-c2ccc([N+](=O)[O-])cc2C)c2ncc(Br)cc12
< 4.30
